Attribution: patent EP4759815A1

Recorded PARP1/2 Fold selectivity for the following compounds
MEASURED_TARGET: Recombinant human PARP1 protein (Homo sapiens)
Sequence (P09874 whole entry): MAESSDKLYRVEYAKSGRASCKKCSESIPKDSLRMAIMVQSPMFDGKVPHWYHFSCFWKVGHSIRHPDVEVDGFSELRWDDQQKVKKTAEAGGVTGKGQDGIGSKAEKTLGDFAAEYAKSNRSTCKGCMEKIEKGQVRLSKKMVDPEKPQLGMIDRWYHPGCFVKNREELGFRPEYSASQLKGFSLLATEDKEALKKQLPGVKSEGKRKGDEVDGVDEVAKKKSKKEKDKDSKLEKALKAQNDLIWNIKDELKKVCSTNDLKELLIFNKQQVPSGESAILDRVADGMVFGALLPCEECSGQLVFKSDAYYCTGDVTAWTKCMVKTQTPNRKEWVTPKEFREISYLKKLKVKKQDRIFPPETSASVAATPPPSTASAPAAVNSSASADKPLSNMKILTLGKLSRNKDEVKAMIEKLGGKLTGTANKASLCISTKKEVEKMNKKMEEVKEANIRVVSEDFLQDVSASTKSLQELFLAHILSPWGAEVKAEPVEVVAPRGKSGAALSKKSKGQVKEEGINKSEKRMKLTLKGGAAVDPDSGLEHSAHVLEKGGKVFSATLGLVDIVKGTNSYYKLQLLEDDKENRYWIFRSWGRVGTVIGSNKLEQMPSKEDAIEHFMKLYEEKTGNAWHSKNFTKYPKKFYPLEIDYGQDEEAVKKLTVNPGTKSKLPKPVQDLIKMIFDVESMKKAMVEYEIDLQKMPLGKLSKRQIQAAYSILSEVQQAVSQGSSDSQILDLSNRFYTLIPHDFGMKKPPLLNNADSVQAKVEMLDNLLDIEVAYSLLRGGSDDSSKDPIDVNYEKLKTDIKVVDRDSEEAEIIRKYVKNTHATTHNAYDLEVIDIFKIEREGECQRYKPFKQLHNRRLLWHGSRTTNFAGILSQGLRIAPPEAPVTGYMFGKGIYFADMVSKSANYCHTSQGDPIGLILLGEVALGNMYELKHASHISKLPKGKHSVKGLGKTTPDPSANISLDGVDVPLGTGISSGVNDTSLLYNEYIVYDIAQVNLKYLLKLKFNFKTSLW
METHOD_NOTES: PARP1 inhibitory activity (histone substrate, chemiluminescent ELISA)
Type: biochemical
COND: ratio of PARP2 IC50 to PARP1 IC50
MEASUREMENT_TYPE: PARP1/2 Fold selectivity

> print(dat)
                               entry.smiles  result
1  CNC(=O)c1ccc(N2CCN(Cc3cc4c5c(c(C(F)(F)F)nn5c3)N(C)C(=O)N4)CC2)c(C)n1     206
2  CNC(=O)c1ccc(N2CCN(Cc3cc4c5c(cnn5c3)N(C(C)C)C(=O)N4)CC2)c(F)n1     382
3  CNC(=O)c1ccc(N2CCN(Cc3cc4c5c(cnn5C5(CC5)C(=O)N4)c3)C[C@H]2C)c(C)n1   353.6
